Origin of measurements: PubChem BioAssay (NCI)

- Tested on: LOX IMVI melanoma
- Assay Summary: NCI tumour cell line growth inhibition, 48 h; in the data active = GI50 below about 0.43 µM; inactive = the rest
The categories you may choose from are active, inactive

# Compound, Class Name
data = [
    ("CN1CCN(Cc2ccc(NC(=O)c3cncc(C#Cc4c(N)ncc5c(F)cccc45)c3)cc2C(F)(F)F)CC1", "inactive"),
    ("O=C(NCCCl)NCCN1c2nc3ccccc3cc2Sc2cc3ccccc3nc21", "inactive"),
    ("COc1ccc(C2CC(c3ccccc3)=NN2C(=O)c2cc(OC)c(OC)c(OC)c2)cc1O (configuration not stated)", "inactive"),
    ("CCOC(=O)Nc1ccc2nc(N3CCCCCC3)sc2c1", "inactive"),
    ("CC[O-].CC[O-].COc1ccc(C(=O)[CH-]C(C)=O)cc1OC.COc1ccc(C(=O)[CH-]C(C)=O)cc1OC.[Ti+4]", "inactive"),
]

Query: # lookup: test call for `CCCCCCCCCCCCNC(=O)N[C@H](C(=O)N[C@H]1/C=C/CCNC(=O)/C=C/[C@H](C)NC1=O)C(C)C`
Reply: active

Query: # lookup: test call for `CC(C)C(=O)Nc1ccc(-c2nc(-c3cccc(OCCN4CCOCC4)c3)c(-c3ccnc(Br)c3)[nH]2)cc1`
Reply: inactive

Query: # lookup: test call for `NS(=O)(=O)c1ccc(N=Nc2c(O)[nH]c3ccc(C(=O)NCCc4cnc[nH]4)cc23)cc1`
Reply: inactive

Query: # lookup: test call for `Fc1ccc(Nc2ncc(-c3cc(F)c(Cl)cc3Cl)s2)cc1Cl`
Reply: inactive

Query: # lookup: test call for `CS(=O)(=O)c1ccc2c(c1)C(=O)c1c-2n(CCCBr)c(=O)c2cc([N+](=O)[O-])ccc12`
Reply: inactive

Query: # lookup: test call for `CCC(CC)c1cc(N[C@H]2CC[C@H](N)C2)n2nccc2n1`
Reply: inactive

Query: # lookup: test call for `O=C(COc1cccc(/C=C2\COc3ccccc3C2=O)c1)c1ccccc1`
Reply: inactive
